Every entry's value here was drawn from patent US8871728B2.

- tested system: HDAC1 (Homo sapiens (Human), UniProt Q13547)
- Sequence (Q13547 whole entry): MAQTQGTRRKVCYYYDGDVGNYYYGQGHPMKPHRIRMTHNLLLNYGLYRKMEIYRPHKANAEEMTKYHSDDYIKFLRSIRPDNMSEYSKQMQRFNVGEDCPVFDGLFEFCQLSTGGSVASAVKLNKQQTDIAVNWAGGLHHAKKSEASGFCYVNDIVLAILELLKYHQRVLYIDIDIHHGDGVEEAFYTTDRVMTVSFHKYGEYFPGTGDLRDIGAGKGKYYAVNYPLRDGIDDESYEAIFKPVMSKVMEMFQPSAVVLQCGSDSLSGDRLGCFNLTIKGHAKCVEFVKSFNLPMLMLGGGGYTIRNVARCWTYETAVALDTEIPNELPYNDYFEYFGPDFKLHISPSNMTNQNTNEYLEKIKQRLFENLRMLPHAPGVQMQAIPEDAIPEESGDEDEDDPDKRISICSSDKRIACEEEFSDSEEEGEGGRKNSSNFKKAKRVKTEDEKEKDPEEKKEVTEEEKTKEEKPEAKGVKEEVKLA
- protocol details: SAMDI mass spectrometry HDAC inhibition assay
- Type: biochemical
- condition details: at 10 μM, given if the IC50 was above 10 μM
readout kind: HDAC1 % inhibition
Reply with a number, then the unit it belongs to.

O=c1c(O)cccn1CCCCCCCn1cc(-c2ccccc2)nn1 [Compound 159f]; 2%
Oc1cccn(CCCCCn2cc(-c3ccccc3)nn2)c1=S [Compound 162d]; 30%
O=c1c(O)cccn1CCCCCn1cc(-c2ccccc2)nn1 [Compound 159d]; 43%

query: Name the reported HDAC1 % inhibition value associated with the compound O=c1c(O)cccn1CCCCn1cc(-c2ccccc2)nn1 [Compound 159c]
result: 12%

query: Name the reported HDAC1 % inhibition value associated with the compound Oc1cccn(CCCCCCCn2cc(-c3ccccc3)nn2)c1=S [Compound 162f]
result: 35%

* * *

- Test system: Plasmodium falciparum (D6 clone), chloroquine-sensitive
- protocol details: Plasmodium growth inhibition, parasite lactate dehydrogenase assay (Malstat)
- Type: cell-based
- condition details: chloroquine-sensitive
compounds and their reported Plasmodium falciparum (D6 clone) IC50
Answer with a number only, understood to be in µg/mL.

CCC1OC(=O)C(C)C(=O)C(C)C(OC2OC(C)CC(N(C)Cc3ccc(-c4cn(CCCCCC(=O)NO)nn4)cc3)C2O)C(C)(OC)CC(C)C2=NCCN3C(=O)OC1(C)C3C2C (stereo not shown) [Compound 56a]; 0.96
C[C@@H]1CC[C@H]2[C@@H](C)C(=O)O[C@@H]3O[C@@]4(C)CC[C@@H]1[C@]32OO4 [Artemisinin, artemisinin, reference compound]; 0.006
CCC1OC(=O)C(C)C(=O)C(C)C(OC2OC(C)CC(N(C)Cc3ccc(-c4cn(CCCCCCCCC(=O)NO)nn4)cc3)C2O)C(C)(OC)CC(C)C2=NCCN3C(=O)OC1(C)C3C2C (stereo not shown) [Compound 56d]; 1.20

Here is another compound to look at.
query: Give Plasmodium falciparum (D6 clone), chloroquine-sensitive Plasmodium falciparum (D6 clone) IC50 for CCC1OC(=O)C(C)C(=O)C(C)C(OC2OC(C)CC(N(C)Cc3ccc(-c4cn(CCCCCCCC(=O)NO)nn4)cc3)C2O)C(C)(OC)CC(C)C2=NCCN3C(=O)OC1(C)C3C2C (stereo not shown) [Compound 56c]
result: 1.20

* * *

- tested system: UniProt Q9UBN7
- Sequence (Q9UBN7 whole entry): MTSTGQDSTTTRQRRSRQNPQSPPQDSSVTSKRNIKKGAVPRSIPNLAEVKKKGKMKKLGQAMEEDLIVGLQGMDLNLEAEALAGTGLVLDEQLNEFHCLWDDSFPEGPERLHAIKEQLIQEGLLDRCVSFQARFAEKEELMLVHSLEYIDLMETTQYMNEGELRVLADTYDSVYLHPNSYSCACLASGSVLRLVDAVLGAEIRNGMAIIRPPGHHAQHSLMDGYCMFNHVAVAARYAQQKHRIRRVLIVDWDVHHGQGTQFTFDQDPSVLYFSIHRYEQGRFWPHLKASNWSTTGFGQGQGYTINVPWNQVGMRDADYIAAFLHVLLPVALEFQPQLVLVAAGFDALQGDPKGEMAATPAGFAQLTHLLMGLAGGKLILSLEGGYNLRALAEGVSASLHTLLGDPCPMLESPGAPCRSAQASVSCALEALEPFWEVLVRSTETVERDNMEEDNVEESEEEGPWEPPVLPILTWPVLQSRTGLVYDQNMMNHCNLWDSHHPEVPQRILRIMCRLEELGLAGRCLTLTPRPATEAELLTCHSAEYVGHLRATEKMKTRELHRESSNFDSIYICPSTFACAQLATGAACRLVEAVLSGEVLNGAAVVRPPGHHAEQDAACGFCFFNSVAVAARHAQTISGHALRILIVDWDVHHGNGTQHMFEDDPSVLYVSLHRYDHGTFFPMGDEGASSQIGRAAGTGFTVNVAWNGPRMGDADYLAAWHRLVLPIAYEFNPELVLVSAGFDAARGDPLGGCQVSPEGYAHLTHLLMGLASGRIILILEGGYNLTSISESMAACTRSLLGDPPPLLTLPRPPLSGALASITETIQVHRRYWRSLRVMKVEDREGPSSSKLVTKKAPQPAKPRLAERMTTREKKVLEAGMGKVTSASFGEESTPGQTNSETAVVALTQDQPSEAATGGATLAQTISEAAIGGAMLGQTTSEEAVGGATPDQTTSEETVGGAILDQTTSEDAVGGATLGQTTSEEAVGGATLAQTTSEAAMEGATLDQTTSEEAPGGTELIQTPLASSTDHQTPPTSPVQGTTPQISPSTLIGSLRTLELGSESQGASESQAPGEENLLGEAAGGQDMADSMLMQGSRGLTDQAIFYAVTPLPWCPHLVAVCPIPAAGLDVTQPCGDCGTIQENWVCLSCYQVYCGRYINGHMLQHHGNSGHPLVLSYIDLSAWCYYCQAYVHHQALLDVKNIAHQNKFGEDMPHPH
- protocol details: SAMDI mass spectrometry HDAC inhibition assay
- Format: biochemical
- condition details: read-out: HDAC6 % inhibition
// false strictly below 40% in inhibition at 10 µM; true otherwise

Check out these entries, answers already filled in.
N#Cc1cccc(-c2ccc(Cn3cccc(O)c3=S)cc2)c1 [Compound 149b]; true
O=C(CCCCCCC(=O)Nc1ccccc1)NO [SAHA, suberoylanilide hydroxamic acid, reference compound]; true
Oc1cccn(CCCCCCn2cc(-c3ccccc3)nn2)c1=S [Compound 162e]; false

Could you now consider this next compound?
query: State whether the measured inhibition at 10 µM reaches 40%, counting equality as reaching it, for CN(C)c1ccc(-c2ccc(Cn3cccc(O)c3=O)cc2)cc1 [Compound 148g]
result: false

* * *

- Tested on: HMEC
- protocol details: Cell viability, trypan blue exclusion
- Assay type: cell-based
- condition details: Homo sapiens; untransformed cells
readout kind: EC50

CC[C@H]1OC(=O)[C@H](C)[C@@H](O[C@H]2C[C@@](C)(OC)[C@@H](O)[C@H](C)O2)[C@H](C)[C@@H](O[C@@H]2O[C@H](C)C[C@H](N(C)Cc3ccc(-c4cn(CCCCCC(=O)NO)nn4)cc3)[C@H]2O)[C@](C)(OC)C[C@@H](C)C(=O)[C@H](C)[C@@H](O)[C@]1(C)O; > 10 µM

Proceed to the following item.
query: Would you kindly share the measured EC50 for CC[C@H]1OC(=O)[C@H](C)[C@@H](O)[C@H](C)[C@@H](O[C@@H]2O[C@H](C)C[C@H](N(C)Cc3ccc(-c4cn(CCCCCC(=O)NO)nn4)cc3)[C@H]2O)[C@](C)(OC)C[C@@H](C)C(=O)[C@H](C)[C@@H](O)[C@]1(C)O ?
result: > 10 µM

* * *

Property: inhibition at 10 µM; scope: individual molecules
- tested system: HDAC1 (Homo sapiens (Human), UniProt Q13547)
- protocol details: SAMDI mass spectrometry HDAC inhibition assay
- Format: biochemical
- condition details: at 10 μM, given if the IC50 was above 10 μM
# unit: % | format: bare number

Consider the reported inhibition at 10 µM for these molecules:
Cc1ccc(-c2cn(CCCCCn3cccc(O)c3=S)nn2)cc1 [Compound 167a]; 31
CN(C)c1ccc(-c2cn(CCCCCn3cccc(O)c3=O)nn2)cc1 [Compound 166f]; 59
CN(C)c1ccc(-c2cn(CCCCCn3cccc(O)c3=S)nn2)cc1 [Compound 167f]; 28

query: inhibition at 10 µM for O=c1c(O)cccn1CCCCn1cc(-c2ccccc2)nn1 [Compound 159c] ?
result: 15

query: Give its inhibition at 10 µM value. Item: N#Cc1ccc(-c2cn(CCCCCn3cccc(O)c3=S)nn2)cc1 [Compound 167d]
result: 33

query: State the recorded inhibition at 10 µM for this entry: Cc1cccc(-c2cn(CCCCCn3cccc(O)c3=S)nn2)c1 [Compound 167b]
result: 19

query: Name the reported inhibition at 10 µM value associated with the molecule N#Cc1cccc(-c2cn(CCCCCn3cccc(O)c3=O)nn2)c1 [Compound 166e]
result: 71

query: Record request: inhibition at 10 µM value, item Cc1ccc(-c2cn(CCCCCn3cccc(O)c3=O)nn2)cc1 [Compound 166a]
result: 66

query: Which value of inhibition at 10 µM has been reported for N#Cc1ccc(-c2cn(CCCCCn3cccc(O)c3=O)nn2)cc1 [Compound 166d] in the records?
result: 70

* * *

- System: DU 145 (androgen independent prostate cancer)
- protocol details: Anti-cancer activity screen
- Assay type: cell-based
- condition details: Homo sapiens, DU-145, calculated IC50 above 20 μM (highest concentration tested) also reported as >20
Parameter pIC50: see the listing below.
To interpret pIC50, take it as minus log10 of a concentration measured in moles per litre.

Before answering, review these 3 worked examples.
Oc1cccn(Cc2cn(-c3ccccc3)nn2)c1=S [Compound 154a]; 4.62
Oc1cccn(Cc2ccc(Cn3cc(-c4ccccc4)nn3)cc2)c1=S; 4.79
Cc1ccccc1-c1ccc(Cn2cccc(O)c2=S)cc1 [Compound 149f]; 4.87

Consider the record given below.
query: Bench note: what pIC50 did N#Cc1ccccc1-c1ccc(Cn2cccc(O)c2=S)cc1 [Compound 149c] show?
result: 4.52

* * *

The following compounds are shown together with reported pIC50 values.
- tested system: HDAC8 (Homo sapiens (Human))
- Sequence (Q9BY41 whole entry): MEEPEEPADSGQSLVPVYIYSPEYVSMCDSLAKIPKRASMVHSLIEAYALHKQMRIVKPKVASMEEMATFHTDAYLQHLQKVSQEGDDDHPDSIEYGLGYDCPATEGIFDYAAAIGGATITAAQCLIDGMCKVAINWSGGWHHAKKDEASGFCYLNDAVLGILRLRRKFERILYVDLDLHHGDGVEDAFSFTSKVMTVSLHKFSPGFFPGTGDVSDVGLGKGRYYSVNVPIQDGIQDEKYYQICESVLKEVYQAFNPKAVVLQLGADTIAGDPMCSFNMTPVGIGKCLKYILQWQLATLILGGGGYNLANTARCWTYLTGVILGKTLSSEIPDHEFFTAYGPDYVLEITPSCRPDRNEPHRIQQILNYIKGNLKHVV
- protocol details: SAMDI mass spectrometry HDAC inhibition assay
- Format: biochemical
- condition details: Table 14; read-out: HDAC 8 (nm)
Keep in mind that pIC50 stands for -log10 of concentration in molar terms.

query: Could you share what pIC50 was measured for Oc1ccc[nH]c1=S [3-hydroxypyridine-2-thione, reference compound] , tested on HDAC8 (Homo sapiens (Human))?
result: 5.43

query: Form entry - test system: HDAC8 (Homo sapiens (Human)); read-out: pIC50; compound: Oc1cccn(CCCCCn2cc(-c3ccccc3)nn2)c1=S [Compound 162d]
result: 6.04

query: Identify the measured pIC50 of Oc1cccn(CCCCCCCn2cc(-c3ccccc3)nn2)c1=S [Compound 162f] for HDAC8 (Homo sapiens (Human)).
result: 5.86

query: Quick check: pIC50 on HDAC8 (Homo sapiens (Human)), item N#Cc1cccc(-c2cn(CCCCCn3cccc(O)c3=S)nn2)c1 [Compound 167e] ?
result: 5.62

query: Form field - read-out: pIC50; system: HDAC8 (Homo sapiens (Human)); submitted item: CN(C)c1ccc(-c2ccc(Cn3cccc(O)c3=S)cc2)cc1 [Compound 149g]
result: 5.54

query: Kindly state the measured pIC50 obtained for N#Cc1ccccc1-c1ccc(Cn2cccc(O)c2=S)cc1 [Compound 149c] with HDAC8 (Homo sapiens (Human)).
result: 5.72

query: Notebook entry, HDAC8 (Homo sapiens (Human)) assay: pIC50 of Oc1cccn(Cc2ccc(Cn3cc(-c4ccccc4)nn3)cc2)c1=S [Compound 168] = ?
result: 5.26

* * *

The reader will find reported S.I. D6 values listed item by item below.
- Tested on: Plasmodium falciparum (D6 clone), chloroquine-sensitive
- protocol details: Plasmodium growth inhibition, parasite lactate dehydrogenase assay (Malstat)
- Type: cell-based
- condition details: selective toxicity index, Vero versus D6

See these solved cases before continuing.
C=C1C[C@H](CC)C(C)(C)[C@H](C)[C@@H](C)N(C)C[C@H](C)CC(C)(C)[C@H](C[C@@H]2C[C@H](C)C[C@H](N(C)Cc3ccc(C(C)C)cc3)[C@H]2C)[C@@H](C)[C@H](C)[C@H]1C; > 3.7
CCC1OC(=O)C(C)C(=O)C(C)C(OC2OC(C)CC(N(C)Cc3ccc(-c4cn(CCCCCCCCC(=O)NO)nn4)cc3)C2O)C(C)(OC)CC(C)C2=NCCN3C(=O)OC1(C)C3C2C (stereo not shown) [Compound 56d]; > 4.0
CCC1OC(=O)C(C)C(=O)C(C)C(OC2OC(C)CC(N(C)Cc3ccc(-c4cn(CCCCCCCC(=O)NO)nn4)cc3)C2O)C(C)(OC)CC(C)C2=NCCN3C(=O)OC1(C)C3C2C (stereo not shown) [Compound 56c]; > 4.0

# context switch: different molecule, same S.I. D6
query: Which S.I. D6 reading was recorded for the molecule CCC1OC(=O)C(C)C(=O)C(C)C(OC2OC(C)CC(N(C)Cc3ccc(-c4cn(CCCCCCC(=O)NO)nn4)cc3)C2O)C(C)(OC)CC(C)C2=NCCN3C(=O)OC1(C)C3C2C (stereo not shown) [Compound 56b] ?
result: > 34
